The values you see were collected from patent US20210301005A1.

MEASURED_ON: T1, human TGFβ3, mature dimeric form (human, UniProt P10600 301-412)
T1 sequence: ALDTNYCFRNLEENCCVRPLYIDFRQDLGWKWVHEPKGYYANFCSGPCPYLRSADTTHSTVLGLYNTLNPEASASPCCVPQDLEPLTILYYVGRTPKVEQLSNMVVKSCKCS
TEST_DETAILS: cell-based or functional assay
REPORTED_METRIC: HEKBlue TGFβ blocking IC50
Returns: string containing the number followed by the unit.

>>> meas_value("h4A11.v5 (antibody, human IgG1, kappa, N297G, V domains shown) VH: EQQLVESGGGLVQPGGSLRLSCAVSGFSLSSYTVNWVRQAPGKGLEWIGYISYGGSAYYASWANGRFTISKDSAKNSVYLQMNSLRAEDTAVYFCARHMQVGGAPTGSMAAFDPWGPGTLVTVSS VL: EAVLTQSPGTLSLSPGERATLSCQSSQSVYNNNYLSWFQQKPGQPPRLLIYGASTLTSGVPDRFSGSGSGTDFTLTISRLEPEDFAVYYCAGGYSGSSDKYAFGGGTKVEIKR")
"1.4 nM"

Now look at this one.
Write down HEKBlue TGFβ blocking IC50 measured for item h4A11.v3 (antibody, human IgG1, kappa, N297G, V domains shown) VH: EQQLQESGPGLVKPSETLSLTCTVTGFSLSSYTVNWVRQPAGKGLEWIGYISYGGSAYYASWANGRFTISKDSSKNQVSLKLSSVTAADTAVYFCARHMQVGGAPTGSMAAFDPWGPGTLVTVSS VL: DAVLTQSPDSLAVSLGERATINCQSSQSVYNNNYLSWFQQKPGQPPKLLIYGASTLTSGVPDRFSGSGSGTDFTLTISSLQAEDVAVYYCAGGYSGSSDKYAFGGGTKVEIKR 0.23 nM
